Every entry's value here was drawn from patent EP1976513B1.

target.desc: Norepinephrine Transporter (NET) Sites in Mouse Brain (Mus musculus, UniProt O55192)
Sequence (O55192 whole entry): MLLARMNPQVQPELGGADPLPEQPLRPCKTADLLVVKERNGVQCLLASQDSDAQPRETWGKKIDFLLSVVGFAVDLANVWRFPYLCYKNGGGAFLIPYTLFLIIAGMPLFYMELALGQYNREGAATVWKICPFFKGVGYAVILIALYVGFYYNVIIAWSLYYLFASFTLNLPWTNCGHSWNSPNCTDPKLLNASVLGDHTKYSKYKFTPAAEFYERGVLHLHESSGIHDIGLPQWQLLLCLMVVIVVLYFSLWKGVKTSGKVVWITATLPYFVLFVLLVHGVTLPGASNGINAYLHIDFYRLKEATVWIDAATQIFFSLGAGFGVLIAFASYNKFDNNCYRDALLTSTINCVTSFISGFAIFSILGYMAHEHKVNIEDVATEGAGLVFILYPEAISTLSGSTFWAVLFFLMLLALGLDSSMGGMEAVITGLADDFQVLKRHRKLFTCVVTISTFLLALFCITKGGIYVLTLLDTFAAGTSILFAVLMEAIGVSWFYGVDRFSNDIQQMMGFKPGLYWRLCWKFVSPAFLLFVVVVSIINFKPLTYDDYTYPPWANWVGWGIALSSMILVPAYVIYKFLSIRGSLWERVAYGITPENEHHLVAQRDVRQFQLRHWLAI
experimental.parameters: 1 mg/kg, PO; mice sacrificed 60 minutes after treatment; cortex
measurement.name: Mean Specific Binding (dpm) ± S.E.M., NET

| compound | data.value |
| --- | --- |
| CNCC1(c2ccc(Cl)c(Cl)c2)CCC(C)(O)CC1 (centres unmarked) | 1602 |
| CNC(C)C1(c2ccc(Cl)c(Cl)c2)CCCCC1.Cl (single isomer, unassigned) [48 E1, hydrochloride] | 2111 |
| CN(C)CC1(c2ccc(Cl)c(Cl)c2)CCC(C)(O)CC1 (centres unmarked) | 950 |
| CC(N(C)C)C1(c2ccc3ccccc3c2)CCCCC1 (single isomer, unassigned) [56 E1] | 616 |
| CN(C)C[C@]1(c2ccc3ccccc3c2)CC[C@](C)(O)CC1 | 1170 |

###

target.desc: Norepinephrine Transporter (NET) Sites in Mouse Brain (Mus musculus)
experimental.parameters: 3 mg/kg, PO; 60 minutes after treatment; vs vehicle
Below, each of the compounds is paired with its reported % Transporter Occupancy, NET value.
measurement.name: % Transporter Occupancy, NET (%)

| compound | target.desc | data.value |
| --- | --- | --- |
| CN(C)CC1(c2ccc(Cl)c(Cl)c2)CCC(C)(O)CC1 (stereo not shown) [Compound 277] | Norepinephrine Transporter (NET) Sites in Mouse Brain (Mus musculus) | 18 |
| CC(N(C)C)C1(c2ccc3ccccc3c2)CCCCC1 (single isomer, unassigned) [56 E1] | Norepinephrine Transporter (NET) Sites in Mouse Brain (Mus musculus) | 52 |
| CN(C)C[C@]1(c2ccc3ccccc3c2)CC[C@](C)(O)CC1 [Compound 225] | Norepinephrine Transporter (NET) Sites in Mouse Brain (Mus musculus) | 48 |
| CNCC1(c2ccc(Cl)c(Cl)c2)CCC(C)(O)CC1 (stereo not shown) [Compound 276] | Norepinephrine Transporter (NET) Sites in Mouse Brain (Mus musculus) | -6 |

###

The entries below come with measured IC50 values attached.
target.desc: dopamine transporter (Rattus norvegicus)
Construct: synaptosomes isolated in a 0.32 M sucrose buffer from a male Wistar rat striatum; from tissue; host or cells: male Wistar rat striatum synaptosomes
Sequence (P23977 whole entry): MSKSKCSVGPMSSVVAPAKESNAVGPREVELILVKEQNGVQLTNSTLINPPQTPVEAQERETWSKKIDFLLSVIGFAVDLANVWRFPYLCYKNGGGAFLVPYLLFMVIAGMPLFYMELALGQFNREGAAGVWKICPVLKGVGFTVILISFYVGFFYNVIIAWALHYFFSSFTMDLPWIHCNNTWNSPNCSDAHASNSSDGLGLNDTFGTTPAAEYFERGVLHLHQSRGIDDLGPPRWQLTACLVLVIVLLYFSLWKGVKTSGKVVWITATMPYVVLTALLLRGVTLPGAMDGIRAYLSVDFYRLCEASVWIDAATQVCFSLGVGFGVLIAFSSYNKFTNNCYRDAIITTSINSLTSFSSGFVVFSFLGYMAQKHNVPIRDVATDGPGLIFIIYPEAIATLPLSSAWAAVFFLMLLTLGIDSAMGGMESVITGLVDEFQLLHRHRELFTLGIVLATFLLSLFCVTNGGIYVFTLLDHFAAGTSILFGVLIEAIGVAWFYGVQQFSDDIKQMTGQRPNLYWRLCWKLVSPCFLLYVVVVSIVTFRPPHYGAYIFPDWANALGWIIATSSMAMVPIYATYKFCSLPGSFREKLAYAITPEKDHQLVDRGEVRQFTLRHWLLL
assay.explanation: biochemical
experimental.parameters: read-out: Rat IC50 (nM) rDAT; rat synaptosomes, dopamine transporter (DAT)
measurement.name: IC50 (nM)

| compound | unit.text | data.value |
| --- | --- | --- |
| CNC[C@@]1(c2ccc3ccccc3c2)CCCC[C@@H]1O (single isomer, unassigned) [148 E2] | nM | 680 |
| CNC[C@]1(c2ccc3ccccc3c2)CCCC[C@@H]1O (single isomer, unassigned) [147 E2] | nM | 1500 |
| CNC[C@@]1(c2ccc3ccccc3c2)CCCC[C@H]1O (single isomer, unassigned) [147 E1] | nM | 1200 |

###

target.desc: UniProt O55192
experimental.parameters: 30 mg/kg, PO; 60 minutes after treatment; vs vehicle

| molecule | % Transporter Occupancy, NET [%] |
| --- | --- |
| CNCC1(c2ccc(Cl)c(Cl)c2)CCC(C)(O)CC1 (stereo not shown) | 26 |
| CN(C)CC1(c2ccc(Cl)c(Cl)c2)CCC(C)(O)CC1 (stereo not shown) | 71 |
| CC(N(C)C)C1(c2ccc3ccccc3c2)CCCCC1 (single isomer, unassigned) [56 E1] | 98 |
| CN(C)C[C@]1(c2ccc3ccccc3c2)CC[C@](C)(O)CC1 | 85 |
